Tested on: Lung cancer H292
EXPERIMENTAL_DETAILS: MTT cytotoxicity, lung cancer H292
Format: cell-based
ASSAY_CONDITIONS: n = 6, Lung cancer H292
MEASURED_QUANTITY: pIC50
Give bare numbers, as −log10 of the molar value.

Answered cases to consult:
• CN(C)CCC1CC(=O)[O][Pt]2([NH]CC(CO)(CO)C[NH]2)[O]C1=O (centres unmarked) = 4.19
• CCNCCC1CC(=O)[O][Pt]2([NH]C3CCCCC3[NH]2)[O]C1=O (centres unmarked) = 4.21
• CCN(CC)CCC(CC(=O)[O-])C(=O)[O-].NCC1CCC1CN.[Pt+2] (racemic) = 4.60
• NC1CCCCC1N.O=C([O-])CC(CCCN1CCCCC1)C(=O)[O-].[Pt+2] (racemic) = 4.24

Let us examine a further case.
Consider the compound shown here: CCN(CC)CCC1CC(=O)[O][Pt]2([NH]CC3(CCOCC3)C[NH]2)[O]C1=O (centres unmarked) What is its recorded pIC50? 4.33
